All figures here come from patent US20210330611A1.

// primary rat microglia IC50 records

C[C@@H]1C[C@H]2[C@@H]3C[C@H](F)C4=CC(=O)C=C[C@]4(C)[C@@]3(F)[C@@H](O)C[C@]2(C)[C@@]1(O)C(=O)COC(=O)C(C)(C)C [Flumethazone pivalate, reference compound]    > 20 µM

Let's switch to this molecule now.
For primary rat microglia, provide IC50 of O=C([O-])C[C@H](O)C[C@H](O)/C=C/c1c(C2CC2)nc2ccccc2c1-c1ccc(F)cc1.O=C([O-])C[C@H](O)C[C@H](O)/C=C/c1c(C2CC2)nc2ccccc2c1-c1ccc(F)cc1.[Ca+2] [Pitavastatin calcium, reference compound] please.
> 20 µM
